Data provenance is patent US20240417407A1.

target: human GPR84 receptor (Homo sapiens); construct: frozen aliquots prepared by acCELLerate; assay: cAMP HTRF assay for identification of cellular GPR84 antagonists; details: CHO-K1 cells stably expressing human GPR84; Forskolin plus agonist 6-OAU; cAMP HTRF readout; average or median values
Sequence (Q9NQS5 whole entry): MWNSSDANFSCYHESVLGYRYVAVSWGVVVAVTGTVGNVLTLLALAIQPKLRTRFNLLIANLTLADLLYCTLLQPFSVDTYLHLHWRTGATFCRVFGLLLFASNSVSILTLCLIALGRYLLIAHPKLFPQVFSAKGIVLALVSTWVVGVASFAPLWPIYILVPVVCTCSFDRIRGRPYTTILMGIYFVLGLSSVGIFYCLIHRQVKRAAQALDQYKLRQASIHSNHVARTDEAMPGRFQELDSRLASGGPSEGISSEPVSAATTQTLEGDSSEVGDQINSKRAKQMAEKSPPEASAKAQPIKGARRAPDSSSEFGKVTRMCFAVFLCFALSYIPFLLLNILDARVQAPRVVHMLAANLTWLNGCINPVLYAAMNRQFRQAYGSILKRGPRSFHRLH
Measured quantity: IC50 (nM)

Some solved entries appear below for comparison.
Molecule | IC50 / nM
O=C(NCCC1CC1)c1oc2ccc3cn(C[C@H]4COCCO4)nc3c2c1C(F)(F)F | 1040
CC1(C)COC(CNC(=O)c2oc3ccc4cn(C[C@H]5COCCO5)nc4c3c2C(F)(F)F)C1 (mixture of isomers) | 9

a: O=C(NC[C@@H]1CCCO1)c1oc2ccc3cn(C[C@H]4COCCO4)nc3c2c1C(F)(F)F
b: O=C(NC[C@@H]1CCCO1)c1cc2c(cc(Br)c3cn(Cc4ccccn4)nc32)o1
Given a and given b , which shows the smaller recorded IC50? Give the chosen item's label as your response.
a

1: Cc1ccc(Cn2cc3c(C)cc4oc(C(=O)NC[C@@H]5COCCO5)c(C(F)(F)F)c4c3n2)nc1
2: Cc1cc2oc(C(=O)NC[C@@H]3COCCO3)c(C(F)(F)F)c2c2nn(Cc3ccccn3)cc12
3: CC1CCC(CNC(=O)c2oc3ccc4cn(C[C@H]5COCCO5)nc4c3c2C(F)(F)F)O1 (mixture of isomers)
4: O=C(NCCn1ccnc1)c1oc2ccc3cn(C[C@H]4COCCO4)nc3c2c1C(F)(F)F
Put these in order: smallest IC50 first, largest last. Response field: labels, in requested order.
1, 3, 2, 4

a: Cc1cc2oc(C(=O)NC[C@@H]3CCCO3)c(C(F)(F)F)c2c2nn(Cc3ccncc3)cc12
b: Cn1cnc(CNC(=O)c2oc3ccc4cn(C[C@H]5COCCO5)nc4c3c2C(F)(F)F)c1
c: CS(=O)(=O)CCNC(=O)c1oc2ccc3cn(C[C@H]4COCCO4)nc3c2c1C(F)(F)F
d: COc1cccc(CNC(=O)c2oc3ccc4cn(C[C@H]5COCCO5)nc4c3c2C(F)(F)F)n1
e: Cc1cn(CCNC(=O)c2oc3ccc4cn(C[C@H]5COCCO5)nc4c3c2C(F)(F)F)nn1
Order the items by recorded IC50; the first position goes to the largest value. Response field: labels, in requested order.
e, c, d, b, a

A: CCc1cc2oc(C(=O)NC[C@@H]3COCCO3)c(C)c2c2nn(C[C@H]3COCCO3)cc12
B: N#Cc1ccc(CNC(=O)c2oc3ccc4cn(C[C@H]5COCCO5)nc4c3c2C(F)(F)F)nc1
Given A and given B , which shows the smaller recorded IC50? Give the chosen item's label as your response.
B
(B: 13 nM, A: 54 nM)
